assay-system: human Claudin18.2 (human)
assay-notes: cell-based or functional assay
reported-property: CDC % Relative activity (%)
Provide only the numeric value, understood in %.

binder	CDC % Relative activity [%]
422F4B6 (antibody, V domains shown) VH: DVQLVESGGGLVQPGGSRKLSCAASGFSFSSFGMHWVRQAPEKGLEWVAYISSGSSPIYYADTVKGRFIISRDNPKNTLFLQMTSLRSEDTAMYFCARIYYGNSFAYWGQGTLVTVSA VL: DIVMTQSPSSLTVTAGEKVTMSCKSSQTLLNSGNQKNYLTWYQQKPGQPPKLLIYWASTRESGVPDRFTGSGSGTDFTLTISSVQAEDLAVYYCQNAYSYPLTFGSGTKLELK	31.6
423C10E1 (antibody, V domains shown) VH: DVQLVESGGGLVQPGGSRKLSCVTSGFTFSSFGMHWVRQAPEKGLEWVAFISGGGSPIFYADSVKGRFTVSRDNPKNTLFLQMTGLRSEDTAMYFCARFYFGNSFAYWGQGTLVTVSA VL: DIVMTQSPSSLTVTAGEKVTMNCRSSQSLFNSGNQKNYLTWYQQKPGQSPKLLIYWASTRESGVPVRFTGSGSGTDFTLTISSVQAEDLAVYYCQTSFNYPLTFGPGTKLELK	56.2

Continue with the binder presented below.
Would you kindly share the measured CDC % Relative activity for 231H4G11 (antibody, V domains shown) VH: QAYLQQSGAELVRSGASVKMSCKASGYTFTSHNIHWVKQTPGQGLEWIGYISPGNGYTNYNQKFRGKATLTADTSSSTAYMQISSLTSEDSAVYFCTRDYYGNSFAYWGQGTLVTVSA VL: DIVMTQSPSSLTEKAGERVSMSCKSSQSLFNSGSQKNYLTWYQQKPGQPPKLLIYWASTRESGVPDRFSGSGSGTDFTLTISSVQAEDLAVYYCQNNYWFPFTFGAGTKLELK ? 88
